Item-by-item account of CLint scaled at 0.5 μM
experiment: Metabolic stability in human liver microsomes, unbound intrinsic clearance (Cl int/fu mic)
Format: in vitro ADME
statedConditions: human, liver microsomes, pH 7.4, human liver microsomes 0.25 mg/mL, 0.5 μM compound, NADPH, read-out: Cl int, mic unb. (h) [l/h/kg] (unbound intrinsic clearance, human)
Where a name gives a salt, the structure may show the parent alone.

Here is how some compounds turned out for CLint scaled at 0.5 μM.
> print(dat)
                                   compound          result
1  COc1nc(OCC2CCC(F)(F)CC2)c(F)cc1CNC(=O)[C@@H]1CCCN1C  5 to 50 L/h/kg
2  COc1nc(OC2CC(OC)C2)c(F)cc1CNC(=O)[C@@H]1CCCN1 (some centres unmarked) [Example 104, Hydrochloride]      < 5 L/h/kg
3  COc1nc(NC2CCC(C(F)(F)F)CC2)c(F)cc1CNC(=O)[C@@H]1CCCN1 (some centres unmarked)  5 to 50 L/h/kg

For the compound shown here, COc1nc(C2=CCC(OC)CC2)c(F)cc1CNC(=O)[C@@H]1CCCN1 (some centres unmarked) , give the reported CLint scaled at 0.5 μM.
< 5 L/h/kg

// repeat for COc1nc(C2CC2C(F)(F)F)c(F)cc1CNC(=O)[C@@H]1CCCN1 (some centres unmarked) and report
5 to 50 L/h/kg

Another compound: COc1nc(OC2CCC(F)(F)CC2)c(F)cc1CNC(=O)[C@@H]1CCCN1C
5 to 50 L/h/kg

Similarly, COc1nc(OC2CCC(F)(F)CC2)c(F)cc1CNC(=O)[C@@H]1C[C@@H](C)CN1 [Example 59, Hydrochloride] ?
< 5 L/h/kg

Check COc1nc(OCC2CC(F)(F)C2(F)F)c(F)cc1CNC(=O)[C@@H]1CCCN1 (some centres unmarked) too.
< 5 L/h/kg
